For each record, write down the corresponding pIC50.
# tested.on: BACE1 (Homo sapiens, UniProt P56817)
# Construct: endogenous in cells
# Sequence (P56817 46-501): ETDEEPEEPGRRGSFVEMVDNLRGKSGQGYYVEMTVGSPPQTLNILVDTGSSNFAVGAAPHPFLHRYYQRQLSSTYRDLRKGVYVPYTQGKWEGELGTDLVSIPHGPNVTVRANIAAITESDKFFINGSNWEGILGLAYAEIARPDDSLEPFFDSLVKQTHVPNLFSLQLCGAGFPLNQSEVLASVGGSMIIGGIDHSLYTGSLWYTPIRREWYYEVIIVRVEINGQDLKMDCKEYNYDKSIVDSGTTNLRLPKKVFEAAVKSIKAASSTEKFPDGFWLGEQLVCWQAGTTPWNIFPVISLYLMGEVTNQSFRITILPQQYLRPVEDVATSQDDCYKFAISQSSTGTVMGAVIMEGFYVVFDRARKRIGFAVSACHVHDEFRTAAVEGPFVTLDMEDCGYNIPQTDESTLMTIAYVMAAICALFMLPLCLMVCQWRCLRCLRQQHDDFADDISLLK
# measurement.notes: Cellular Aβ-lowering assay (Abeta 40 AlphaLISA)
# condition.notes: HEK293 APP cells, 18-20 hrs incubation, Aβ 40 in culture supernatant; read-out: BACE1 cell act. Aβ40 IC50
Bear in mind: pIC50 is minus log10 of a mol/L concentration; give just that figure.

Sample `N#Cc1ccc(C(=O)Nc2ccc(F)c([C@]3(C(F)F)C[C@@H](C(F)(F)F)OC(N)=N3)c2)nc1` ; pIC50 observed: 7.09

Sample `NC1=N[C@](CF)(c2cc(NC(=O)c3cnc(OCC(F)F)cn3)ccc2F)C[C@@H](C(F)(F)F)O1` ; pIC50 observed: 7.54

Sample `NC1=N[C@](CF)(c2cc(NC(=O)c3ccc(OC(F)F)cn3)ccc2F)C[C@@H](C(F)(F)F)O1` ; pIC50 observed: 8.15

Sample `C[C@@]1(c2cc(NC(=O)c3ccc(OCF)cn3)ccc2F)C[C@@H](C(F)(F)F)OC(N)=N1` ; pIC50 observed: 8.40

Sample `C[C@@]1(c2cc(NC(=O)c3ncc(Cl)cc3Cl)ccc2F)C[C@@H](C(F)(F)F)OC(N)=N1` ; pIC50 observed: 8.22

Sample `C[C@@]1(c2cc(NC(=O)c3cnc(OCC(F)(F)F)cn3)ccc2F)C[C@@H](C(F)(F)F)OC(N)=N1` ; pIC50 observed: 7.82

Sample `NC1=N[C@](CF)(c2cc(NC(=O)c3coc(CF)n3)ccc2F)C[C@@H](C(F)(F)F)O1` ; pIC50 observed: 9.00

====

pIC50: −log10 of the molar value.
For each record, write down the corresponding pIC50.

Tested on cathepsin D (from human liver) (Homo sapiens, UniProt P07339): NC1=N[C@](CF)(c2cc(NC(=O)c3nn(C(F)F)cc3Cl)ccc2F)C[C@@H](C(F)(F)F)O1 [Example 46] . Observed pIC50: < 3.70

Tested on cathepsin D (from human liver) (Homo sapiens, UniProt P07339): N#Cc1ccc(C(=O)Nc2ccc(F)c([C@]3(CF)C[C@@H](C(F)(F)F)OC(N)=N3)c2)nc1 [Example 3] . Observed pIC50: < 3.70

Tested on cathepsin D (from human liver) (Homo sapiens, UniProt P07339): C[C@@]1(c2cc(NC(=O)c3ccc(Cl)cn3)ccc2F)C[C@@H](C(F)(F)F)OC(N)=N1 [Example 2] . Observed pIC50: < 3.70

Tested on cathepsin D (from human liver) (Homo sapiens, UniProt P07339): CC#CCOc1cnc(C(=O)Nc2ccc(F)c([C@]3(C)C[C@@H](C(F)(F)F)OC(N)=N3)c2)cn1 [Example 22] . Observed pIC50: 3.75

====

# tested.on: hERG (Homo sapiens, UniProt Q12809)
# Sequence (Q12809 whole entry): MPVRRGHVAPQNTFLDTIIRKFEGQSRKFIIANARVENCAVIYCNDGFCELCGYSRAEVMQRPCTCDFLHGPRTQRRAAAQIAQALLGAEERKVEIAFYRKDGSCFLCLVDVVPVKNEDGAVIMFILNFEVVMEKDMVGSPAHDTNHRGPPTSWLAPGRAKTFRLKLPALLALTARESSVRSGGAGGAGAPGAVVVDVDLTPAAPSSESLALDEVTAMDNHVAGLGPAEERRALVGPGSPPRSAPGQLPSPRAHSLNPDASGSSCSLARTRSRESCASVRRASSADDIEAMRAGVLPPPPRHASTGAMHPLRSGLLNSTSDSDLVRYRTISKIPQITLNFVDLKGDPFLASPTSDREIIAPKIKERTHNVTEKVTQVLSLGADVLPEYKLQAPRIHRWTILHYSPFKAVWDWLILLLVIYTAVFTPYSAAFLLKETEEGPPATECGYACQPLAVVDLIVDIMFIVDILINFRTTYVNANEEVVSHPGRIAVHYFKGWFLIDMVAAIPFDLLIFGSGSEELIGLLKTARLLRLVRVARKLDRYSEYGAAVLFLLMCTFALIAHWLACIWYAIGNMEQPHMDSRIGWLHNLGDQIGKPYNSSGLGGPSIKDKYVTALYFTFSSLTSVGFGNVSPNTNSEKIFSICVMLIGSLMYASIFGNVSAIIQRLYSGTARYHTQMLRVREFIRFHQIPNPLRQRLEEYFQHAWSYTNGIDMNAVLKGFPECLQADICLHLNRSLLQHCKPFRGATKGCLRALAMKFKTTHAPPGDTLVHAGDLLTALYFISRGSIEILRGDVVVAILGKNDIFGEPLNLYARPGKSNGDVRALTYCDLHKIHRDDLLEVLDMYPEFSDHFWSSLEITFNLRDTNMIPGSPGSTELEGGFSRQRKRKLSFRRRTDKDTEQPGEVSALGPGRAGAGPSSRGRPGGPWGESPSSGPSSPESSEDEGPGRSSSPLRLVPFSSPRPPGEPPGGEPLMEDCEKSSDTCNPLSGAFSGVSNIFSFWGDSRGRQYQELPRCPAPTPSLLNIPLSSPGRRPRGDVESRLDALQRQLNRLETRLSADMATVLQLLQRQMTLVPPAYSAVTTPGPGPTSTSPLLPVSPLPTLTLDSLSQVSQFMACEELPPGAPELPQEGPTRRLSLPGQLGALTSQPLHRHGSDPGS
# measurement.notes: hERG current measurement (automated patch clamp)
# Assay type: cell-based
quantity.name: hERG Inhibition @ 10 μM
The response must contain the number and no unit.

Tested on hERG (Homo sapiens, UniProt Q12809): C[C@@]1(c2cc(NC(=O)c3ccc(Cl)cn3)ccc2F)C[C@@H](C(F)(F)F)OC(N)=N1 [Example 2] . Observed hERG Inhibition @ 10 μM: 84

Tested on hERG (Homo sapiens, UniProt Q12809): COc1cnc(C(=O)Nc2ccc(F)c([C@]3(CF)C[C@@H](C(F)(F)F)OC(N)=N3)c2)cn1 [Example 36] . Observed hERG Inhibition @ 10 μM: 7

Tested on hERG (Homo sapiens, UniProt Q12809): NC1=N[C@](CF)(c2cc(NC(=O)c3nn(C(F)F)cc3Cl)ccc2F)C[C@@H](C(F)(F)F)O1 [Example 46] . Observed hERG Inhibition @ 10 μM: 8

Tested on hERG (Homo sapiens, UniProt Q12809): C[C@@]1(c2cc(NC(=O)c3ccc(OCF)cn3)ccc2F)C[C@@H](C(F)(F)F)OC(N)=N1 [Example 11] . Observed hERG Inhibition @ 10 μM: 26

Tested on hERG (Homo sapiens, UniProt Q12809): NC1=N[C@](CF)(c2cc(NC(=O)c3ccc(OCF)cn3)ccc2F)C[C@@H](C(F)(F)F)O1 [Example 35] . Observed hERG Inhibition @ 10 μM: 26

====

# tested.on: BACE1 (Homo sapiens, UniProt P56817)
# Construct: endogenous in cells
# measurement.notes: Cellular Aβ-lowering assay (Abeta 40 AlphaLISA)
# condition.notes: HEK293 APP cells, 18-20 hrs incubation, Aβ 40 in culture supernatant; read-out: BACE1 cell act. Aβ40 IC50
quantity.name: IC50 (nM)
The response must be a number in nM with no trailing unit.

Sample `C[C@@]1(c2cc(NC(=O)c3cnc(OCF)cn3)ccc2F)C[C@@H](C(F)(F)F)OC(N)=N1` ; IC50 observed: 1

Sample `C[C@@]1(c2cc(NC(=O)c3cnc(CF)cn3)ccc2F)C[C@@H](C(F)(F)F)OC(N)=N1` ; IC50 observed: 6

Sample `C[C@@]1(c2cc(NC(=O)c3ccc(OC(F)F)cn3)ccc2F)C[C@@H](C(F)(F)F)OC(N)=N1` ; IC50 observed: 1

Sample `NC1=N[C@](CF)(c2cc(NC(=O)c3cnc(CF)cn3)ccc2F)C[C@@H](C(F)(F)F)O1` ; IC50 observed: 53

Sample `C[C@@]1(c2cc(NC(=O)c3cnc(C(F)F)cn3)ccc2F)C[C@@H](C(F)(F)F)OC(N)=N1` ; IC50 observed: 5

Sample `C[C@@]1(c2cc(NC(=O)c3cnc(OC(F)F)cn3)ccc2F)C[C@@H](C(F)(F)F)OC(N)=N1` ; IC50 observed: 3

Sample `NC1=N[C@](CF)(c2cc(NC(=O)c3cnc(OCF)cn3)ccc2F)C[C@@H](C(F)(F)F)O1` ; IC50 observed: 3

Sample `N#Cc1cnc(C(=O)Nc2ccc(F)c([C@]3(CF)C[C@@H](C(F)(F)F)OC(N)=N3)c2)c(Cl)c1` ; IC50 observed: 11

====

For each record, write down the corresponding log10(IC50).
# tested.on: BACE1 (Homo sapiens, UniProt P56817)
# Construct: endogenous in cells
# measurement.notes: Cellular Aβ-lowering assay (Abeta 40 AlphaLISA)
# condition.notes: HEK293 APP cells, 18-20 hrs incubation, Aβ 40 in culture supernatant; read-out: BACE1 cell act. Aβ40 IC50
All values: log10 IC50 [nM].

Sample `COc1ccc(C(=O)Nc2ccc(F)c([C@]3(C)C[C@@H](C(F)(F)F)OC(N)=N3)c2)nc1` ; log10(IC50) observed: 0.30

Sample `NC1=N[C@](CF)(c2cc(NC(=O)c3ccc(OC(F)(F)F)cn3)ccc2F)C[C@@H](C(F)(F)F)O1` ; log10(IC50) observed: 0.85

Sample `C[C@@]1(c2cc(NC(=O)c3ccc(OC(F)(F)F)cn3)ccc2F)C[C@@H](C(F)(F)F)OC(N)=N1` ; log10(IC50) observed: 0.00

Sample `NC1=N[C@](CF)(c2cc(NC(=O)c3ccc(OCF)cn3)ccc2F)C[C@@H](C(F)(F)F)O1` ; log10(IC50) observed: 1.28

Sample `C[C@@]1(c2cc(NC(=O)c3ccc(OCC(F)(F)F)cn3)ccc2F)C[C@@H](C(F)(F)F)OC(N)=N1` ; log10(IC50) observed: 0.90

Sample `NC1=N[C@](CF)(c2cc(NC(=O)c3ccc(C(F)F)cn3)ccc2F)C[C@@H](C(F)(F)F)O1` ; log10(IC50) observed: 1.00

Sample `C[C@@]1(c2cc(NC(=O)c3ccc(Cl)cn3)ccc2F)C[C@@H](C(F)(F)F)OC(N)=N1` ; log10(IC50) observed: 0.70

Sample `CC#CCOc1cnc(C(=O)Nc2ccc(F)c([C@]3(CF)C[C@@H](C(F)(F)F)OC(N)=N3)c2)cn1` ; log10(IC50) observed: -0.22

Sample `C[C@@]1(c2cc(NC(=O)c3nn(C(F)F)cc3Cl)ccc2F)C[C@@H](C(F)(F)F)OC(N)=N1` ; log10(IC50) observed: 0.00

Sample `COc1cnc(C(=O)Nc2ccc(F)c([C@]3(C)C[C@@H](C(F)(F)F)OC(N)=N3)c2)cn1` ; log10(IC50) observed: 0.70

Sample `NC1=N[C@](CF)(c2cc(NC(=O)c3cnc(OC(F)F)cn3)ccc2F)C[C@@H](C(F)(F)F)O1` ; log10(IC50) observed: -0.40

Sample `N#Cc1ccc(C(=O)Nc2ccc(F)c([C@]3(C(F)F)C[C@H](C(F)(F)F)OC(N)=N3)c2)nc1` ; log10(IC50) observed: 2.72

Sample `C[C@@]1(c2cc(NC(=O)c3ccc(Cl)cn3)ccc2F)C[C@H](C(F)(F)F)OC(N)=N1` ; log10(IC50) observed: 2.85

Sample `NC1=N[C@](CF)(c2cc(NC(=O)c3ccc(OCC(F)(F)F)cn3)ccc2F)C[C@@H](C(F)(F)F)O1` ; log10(IC50) observed: 1.85

Sample `Cc1cnc(C(=O)Nc2ccc(F)c([C@]3(C)C[C@@H](C(F)(F)F)OC(N)=N3)c2)cn1` ; log10(IC50) observed: 1.77
